// data source = patent US20250145639A1

# EXPERIMENTAL TARGET: HIS-KRAS (G12V) (Homo sapiens, UniProt P01116, G12V)
# Sequence (P01116 1-188 isoform P01116-2 G12V): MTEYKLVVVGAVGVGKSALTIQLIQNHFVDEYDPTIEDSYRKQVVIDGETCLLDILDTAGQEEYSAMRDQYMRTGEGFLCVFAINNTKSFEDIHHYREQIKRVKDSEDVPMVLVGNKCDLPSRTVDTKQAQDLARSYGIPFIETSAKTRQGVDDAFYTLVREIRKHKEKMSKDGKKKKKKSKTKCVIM
# ASSAY EXPLANATION: KRas G12V binding assay (TR-FRET, SOS1-mediated BODIPY FL GTP nucleotide exchange)
# STUDY CONDITIONS: GDP-loaded HIS-KRAS (G12V) 3 nM, 1 hour pre-incubation with compound, 4 hours with SOS1 ExD and BODIPY FL GTP at 25° C
Reported IC50 maps to class as: lo = under 4 nM, mid = from 4 nM up to 10 nM, hi = 10 nM and over

COMPOUND STRING | EXPERIMENTAL TARGET | LABEL CLASS
C#Cc1c(F)ccc2cc(O)cc(-c3ncc4c(N5C[C@H]6CC[C@@H](C5)N6C(=O)C=C)nc(OC[C@]5(C)C[C@@H](F)CN5C)nc4c3F)c12 | HIS-KRAS (G12V) (Homo sapiens, UniProt P01116, G12V) | hi

Note: place this compound into its band. Item: C#Cc1cccc2cc(O)cc(-c3ncc4c(N5CC6CCC(C5)N6C(=O)C=C)nc(OC[C@@]56CCCN5C[C@H](F)C6)nc4c3F)c12 mid

Note: place this compound into its band. Item: C#Cc1c(F)ccc2cc(O)cc(-c3ncc4c(N5CCCC[C@@H](NC(=O)C=C)C5)nc(OCC56CCCN5CCC6)nc4c3F)c12 hi

Note: place this compound into its band. Item: C#Cc1c(F)ccc2cc(O)cc(-c3ncc4c(N5C[C@H]6CC[C@@H](C5)N6C(=O)C=C)nc(OC[C@]5(C)CCCN5C)nc4c3F)c12 hi

Note: place this compound into its band. Item: C#Cc1c(F)ccc2cccc(-c3ncc4c(N5C[C@H]6CC[C@@H](C5)N6C(=O)C=C)nc(OCC56CCCN5CCC6)nc4c3F)c12 hi

Note: place this compound into its band. Item: C#Cc1c(F)ccc2cc(O)cc(-c3ncc4c(N(C)C[C@@H]5CCCN5C(=O)C=C)nc(OC[C@@]56CCCN5C[C@H](F)C6)nc4c3F)c12 lo

Note: place this compound into its band. Item: C#Cc1c(F)ccc2cc(O)cc(-c3ncc4c(N5C[C@H]6CC[C@@H](C5)N6C(=O)C=C)nc(OC[C@@H]5CCCCN5C)nc4c3F)c12 mid
